system: HOP-62 NSCLC; assay: NCI tumour cell line growth inhibition, 48 h
value.type: TGI

Provide TGI value for the following compound: COP1(=O)Oc2ccccc2C(=O)C(C(F)(F)F)(C(F)(F)F)O1 (centres undefined)
> 100 µM

Provide TGI value for the following compound: CC(=O)O[C@H]1C(=O)[C@@]2(C)C(C(OC(=O)c3ccccc3)[C@]3(O)CC(OC(=O)C(O)C(NC(=O)c4ccc(C)cc4)c4ccccc4)C(C)=C1C3(C)C)[C@]1(OC(C)=O)CO[C@@H]1C[C@@H]2O (some centres undefined)
14.1 µM

Provide TGI value for the following compound: O=C(O)c1ccc(C(c2c(O)c3ccccc3oc2=O)c2c(O)c3ccccc3oc2=O)cc1
> 100 µM

Provide TGI value for the following compound: CN(C)c1nc(-c2ccccc2)c(C(=O)c2c[nH]c3ccccc23)s1
> 100 µM

Provide TGI value for the following compound: COc1ccc2c(c1)OC[C@@H]1c3cc4c(cc3O[C@H]21)OCO4
> 100 µM

Provide TGI value for the following compound: Cc1nc(NC(=O)CCCN2C(=O)c3cccc4cccc(c34)C2=O)sc1C(=O)Nc1cc(C(=O)NCCCN(C)C)n(C)c1
> 100 µM

Provide TGI value for the following compound: CCCCn1c2c(n(CCCC)c1=S)-c1c(n(CCCC)c(=S)n1CCCC)SSSS2
36.6 µM

Provide TGI value for the following compound: NCc1nnn(Cc2ccccc2)c1N
> 100 µM

Provide TGI value for the following compound: NS(=O)(=O)c1ccc(CNc2nc(-c3cccs3)nc3ccc(I)cc23)cc1
49.9 µM

Provide TGI value for the following compound: COc1ccc(N2C(=O)C3c4[nH]c5cccc(C)c5c4C4CCC(C(C)(C)C)CC4C3C2=O)cc1 (centres undefined)
> 10 µM

Provide TGI value for the following compound: O=C(CCCl)NNC1=NCCN1
> 100 µM

Provide TGI value for the following compound: O=C(NCCO)Nc1c(C(F)(F)F)cc(-c2ccccc2)[nH]c1=O
> 100 µM

Provide TGI value for the following compound: COC(=O)CCC/C=C\C[C@H]1C=CC(=O)/C1=C/C[C@@H](O)C/C=C\CC(F)(F)F
5.16 µM

Provide TGI value for the following compound: COc1ccccc1CNCCCN1C(=O)c2ccc3c4c(ccc(c24)C1=O)C(=O)N(CCCNCCCN)C3=O
3.34 µM

Provide TGI value for the following compound: OC1CN2CCS[C@H]2C(O)C1O (some centres undefined)
> 100 µM

Provide TGI value for the following compound: COc1nc2sc3c(c2c(=O)n1CCCSSCCCn1c(OC)nc2sc4c(c2c1=O)CCCC4)CCCC3
> 100 µM

Provide TGI value for the following compound: COc1ccc(O)c(C=NCCCN=Cc2cc(OC)ccc2O)c1
> 100 µM

Provide TGI value for the following compound: O=C1CCC2(CC1)SCCCS2
> 100 µM

Provide TGI value for the following compound: c1ccc(CN(Cn2cccn2)Cn2cccn2)nc1
> 100 µM

Provide TGI value for the following compound: CCCc1nc2c(C)cc(-c3nc4ccccc4n3C)cc2n1Cc1ccc(-c2ccccc2C(=O)O)cc1
> 100 µM

Provide TGI value for the following compound: Cc1[nH]c(=O)[nH]c(=O)c1CO
> 100 µM

Provide TGI value for the following compound: NS(=O)(=O)c1ccc(N2N=C3c4ccccc4CC3C2c2ccc(Cl)cc2)cc1 (centres undefined)
47.4 µM

Provide TGI value for the following compound: O=C(NC1=NC2C=CC([N+](=O)[O-])=CC2S1)C(=O)Nn1c(=S)[nH]c2ccccc2c1=O (centres undefined)
> 100 µM

Provide TGI value for the following compound: ClC1=C(Cc2ccccc2)Cc2ccc3c(c21)CCC3
> 100 µM

Provide TGI value for the following compound: CC(C)=CC(=O)Cc1nc2cc(C)c(C)cc2[nH]c1=O
> 100 µM

Provide TGI value for the following compound: Nc1ccc(/C=N/Nc2ccnc3c(N)cccc23)c2cccnc12
3.53 µM

Provide TGI value for the following compound: CCOC(=O)CCC(NC(=O)c1ccc(OCc2nc3ccccc3n3cccc23)cc1)C(=O)OCC (centres undefined)
> 100 µM

Provide TGI value for the following compound: O=c1[nH]nc(Cc2ccc(Cl)cc2)n1/N=C\c1ccc(/C=N/n2c(Cc3ccc(Cl)cc3)n[nH]c2=O)cc1
57.5 µM

Provide TGI value for the following compound: CC12CCC[C@@](C)(C(=O)OC3OC(CO)C(O)C(O)C3O)[C@H]1CCC13CC4CC(OC4(CO)[C@H]1O)[C@@H]23 (some centres undefined)
> 100 µM

Provide TGI value for the following compound: COc1ccc2nc3ccccc3c(NCCCCCCN(C)CCCl)c2c1
3.03 µM

Provide TGI value for the following compound: NS(=O)(=O)c1ccc(CCN=C=S)cc1
10.1 µM

Provide TGI value for the following compound: CCCCCCCC[N+](C)(CCCCCCCC)CCCCCCCC
1.61 µM

Provide TGI value for the following compound: O=C(Cc1ccc(Cl)c(Cl)c1)N(CCc1ccc(Cl)c(Cl)c1)CCN1CCCC1
3.38 µM

Provide TGI value for the following compound: N#Cc1ccnc(N2C(=O)CC[C@H]2C(=O)N(c2cncc(F)c2)[C@H](C(=O)NC2CC(F)(F)C2)c2ccccc2Cl)c1
> 100 µM

Provide TGI value for the following compound: Cc1cccc(-c2cc(=S)c3cc(N4CCCC4)ccc3[nH]2)c1
> 100 µM

Provide TGI value for the following compound: CN(/N=C/C=N/N(C)C1=NCCCCN1)C1=NCCCCN1
> 100 µM

Provide TGI value for the following compound: NC(=S)N/N=C1/C(=O)N(c2ccc(Cl)cc2Cl)C(=O)C(=O)C1c1nc2ccccc2s1 (centres undefined)
> 100 µM

Provide TGI value for the following compound: COc1ccc2c(c1)CC[C@@H]1[C@@H]2CC[C@]2(C)C(c3ccco3)=C(C=O)C[C@@H]12
46.2 µM

Provide TGI value for the following compound: Cn1c2ccccc2c(=NNc2ccccc2C(=O)O)c2ccccc21
75.4 µM

====

tested on: SNB-75 CNS; assay: NCI tumour cell line growth inhibition, 48 h
Provide the reported TGI of each item.
Reply with just the number (in µM).

Provide TGI value for the following molecule: O=[N+]([O-])c1cc(Cl)cc2cc(Cl)cnc12
98

Provide TGI value for the following molecule: O=c1oc2ccc3ccccc3c2cc1-c1nc2ccccc2o1
40.7

Provide TGI value for the following molecule: COc1ccc(/C=C/c2n[nH]c3ccc(N4CCOC4=O)cc23)cc1
18

Provide TGI value for the following molecule: CC(C)(C)C(=O)C1CC(=O)c2ccccc2C1=O (configuration not stated)
31.3

Provide TGI value for the following molecule: CCn1cnc2c(Nc3cccc(Cl)c3)nc(N[C@@H]3CCCC[C@@H]3N)nc21
2.23

Provide TGI value for the following molecule: Cn1c2ccccc2c(=NNc2ccccc2C(=O)O)c2ccccc21
67

Provide TGI value for the following molecule: Cc1ccc(S(=O)(=O)N2CCc3ccc(O)c4c3C2Cc2cc(Cl)ccc2-4)cc1 (configuration not stated)
2.42

Provide TGI value for the following molecule: Oc1ccc(Cn2c(-c3ccc(O)c(O)c3)nc3ccccc32)cc1O
39.4

Provide TGI value for the following molecule: CN(C)c1nc(-c2ccccc2)c(C(=O)c2c[nH]c3ccccc23)s1
7.71

Provide TGI value for the following molecule: CCCCCCCC[N+](C)(CCCCCCCC)CCCCCCCC
1.42

Provide TGI value for the following molecule: O=c1[nH]nc(Cc2ccc(Cl)cc2)n1/N=C\CC/C=N\n1c(Cc2ccc(Cl)cc2)n[nH]c1=O
23.1

Provide TGI value for the following molecule: O=C(O)CC/C(=N\Nc1nsc2ccccc12)c1ccc(Cl)cc1
73.1

Provide TGI value for the following molecule: COC1=CC(c2ccc[nH]2)=N/C1=C\c1[nH]c(C)c(C(=O)CCCCC(=O)Nc2ccccc2)c1C
11.4

Provide TGI value for the following molecule: Cc1ccc(C)c(-c2csc(Nc3ccc(C)c(C)c3)n2)c1
53.2

Provide TGI value for the following molecule: COC1=CC(c2ccc[nH]2)=N/C1=C\c1ccc[nH]1
1.83

Provide TGI value for the following molecule: COc1cc(-n2cc(-c3ccc(Cl)cc3)[nH]c2=O)cc(OC)c1OC
50.5

Provide TGI value for the following molecule: CC(=O)Oc1cc2c(cc1OC(C)=O)[C@H]1CC[C@]3(C)[C@@H](OC(C)=O)CC[C@H]3[C@@H]1CC2
4.42

====

tested on: NCI-H23 lung; experiment: NCI tumour cell line growth inhibition, 48 h; in the data active means GI50 below about 0.43 µM; inactive means the rest
Hi there, use one of these labels in your reply, thanks! true = active, false = inactive

Hey, what did the test say about COc1cc(C(=O)c2cc3c(cc2C)OCO3)cc(OC)c1OC ?
true

Hey, what did the test say about COc1ccc([N+](=O)[O-])c(S(=O)(=O)c2ccc(Cl)cc2)n1 ?
false

Hey, what did the test say about COc1ccc(-c2ccc(C3CC(c4ccc(Cl)cc4)=NN3)o2)c([N+](=O)[O-])c1 (configuration not stated) ?
false

Hey, what did the test say about COc1cc(/C=C2\COc3ccc(O)c(O)c3C2=O)cc(OC)c1 ?
false

Hey, what did the test say about COC(=O)C1=C(C(=O)OC)C23C=C(C)C1C2=C(C)C1(CC1)[C@@](C)(O)C3=O (some centres not stated) ?
true

Hey, what did the test say about COc1cc2nc(Nc3cccc(F)c3)nc(Nc3cc(C)[nH]n3)c2cc1OC ?
false

Hey, what did the test say about CC(=O)N=c1ccc2nc3c(cc(N)c4ccccc43)oc-2c1 ?
false
